// reported combination Emax per item
System: NCI-H2731 (Mesothelioma)
test-description: combination Emax (second highest fraction inhibited in the dose matrix, 72 h); higher = more inhibition; extreme values may be limits of the assay

molecule	combination Emax
CC1(C)CCC(CN2CCN(c3ccc(C(=O)NS(=O)(=O)c4ccc(NCC5CCOCC5)c([N+](=O)[O-])c4)c(Oc4cnc5[nH]ccc5c4)c3)CC2)=C(c2ccc(Cl)cc2)C1 [Venetoclax] + C[C@@H](Nc1cc(F)cc(F)c1)c1cc(C(=O)N(C)C)cc2c(=O)cc(N3CCOCC3)oc12 [AZD8186] (first compound max 1 µM, 7x7, partner max 3 µM)	0.107
CC1(C)CCC(CN2CCN(c3ccc(C(=O)NS(=O)(=O)c4ccc(NCC5CCOCC5)c([N+](=O)[O-])c4)c(Oc4cnc5[nH]ccc5c4)c3)CC2)=C(c2ccc(Cl)cc2)C1 [Venetoclax] + Cn1cnc2c(F)c(Nc3ccc(Br)cc3Cl)c(C(=O)NOCCO)cc21 [Selumetinib] (first compound max 1 µM, 7x7, partner max 3 µM)	0.0907
C=CCn1c(=O)c2cnc(Nc3ccc(N4CCN(C)CC4)cc3)nc2n1-c1cccc(C(C)(C)O)n1 [AZD1775] + C[C@@H]1COCCN1C2=NC(=NC(=C2)C3(CC3)[S@](=N)(=O)C)C4=C5C=CNC5=NC=C4 [AZD6738] (first compound max 1 µM, partner max 10 µM)	0.464
CCc1c2c(nc3ccc(O)cc13)-c1cc3c(c(=O)n1C2)COC(=O)[C@]3(O)CC [SN-38] + CN(C)CCCOc1ccc(-c2ccc3ncc4c(c3c2)n(C2CCOCC2)c(=O)n4C)cn1 [AZD0156] (first compound max 0.3 µM, 7x7, partner max 1 µM)	0.406
NC1(C(=O)N[C@@H](CCO)c2ccc(Cl)cc2)CCN(c2ncnc3[nH]ccc23)CC1 [Capivasertib] + CC(C)n1c(=O)n(C)c2cnc3cc(F)c(-c4ccc(OCCCN5CCCCC5)nc4)cc3c21 [AZD1390] (first compound max 10 µM, 7x7, partner max 0.3 µM)	0.265
COc1cccc(OCCCN)c1-c1cc(Nc2cnc(C#N)cn2)n[nH]1 [Prexasertib] + C[C@@H]1COCCN1C2=NC(=NC(=C2)C3(CC3)[S@](=N)(=O)C)C4=C5C=CNC5=NC=C4 [AZD6738] (first compound max 1 µM, 7x7, partner max 10 µM)	0.395
CC1(C)CCC(CN2CCN(c3ccc(C(=O)NS(=O)(=O)c4ccc(NCC5CCOCC5)c([N+](=O)[O-])c4)c(Oc4cnc5[nH]ccc5c4)c3)CC2)=C(c2ccc(Cl)cc2)C1 [Venetoclax] + CN(C)CCCOc1ccc(-c2ccc3ncc4c(c3c2)n(C2CCOCC2)c(=O)n4C)cn1 [AZD0156] (first compound max 1 µM, 7x7, partner max 1 µM)	0.145
COc1cccc(OCCCN)c1-c1cc(Nc2cnc(C#N)cn2)n[nH]1 [Prexasertib] + CCc1c2c(nc3ccc(O)cc13)-c1cc3c(c(=O)n1C2)COC(=O)[C@]3(O)CC [SN-38] (first compound max 1 µM, 7x7, partner max 0.3 µM)	0.663
Cc1c2c(nn1C)CSCc1cc(n(C)n1)CSc1cc(c3ccccc3c1)OCCCc1c(C(=O)O)n(C)c3c-2c(Cl)ccc13 [AZD5991] + C1CN(CCC1(C(=O)N[C@@H](CCO)C2=CC=C(C=C2)Cl)N)C3=NC=NC4=C3C=CN4 [Capivasertib] (first compound max 1 µM, 7x7, partner max 3 µM)	0.21
Cn1cnc2c(F)c(Nc3ccc(Br)cc3Cl)c(C(=O)NOCCO)cc21 [Selumetinib] + CC(C)n1c(=O)n(C)c2cnc3cc(F)c(-c4ccc(OCCCN5CCCCC5)nc4)cc3c21 [AZD1390] (first compound max 10 µM, 7x7, partner max 0.3 µM)	0.0731
C[C@@H](Oc1cc(-c2cnn(C3CCNCC3)c2)cnc1N)c1c(Cl)ccc(F)c1Cl [Crizotinib] + CC1=C(C(=CC=C1)Cl)NC(=O)C2=CN=C(S2)NC3=CC(=NC(=N3)C)N4CCN(CC4)CCO [Dasatinib] (first compound max 10 µM, 7x7, partner max 2 µM)	0.888
Cc1c2c(nn1C)CSCc1cc(n(C)n1)CSc1cc(c3ccccc3c1)OCCCc1c(C(=O)O)n(C)c3c-2c(Cl)ccc13 [AZD5991] + C[C@@H](Nc1cc(F)cc(F)c1)c1cc(C(=O)N(C)C)cc2c(=O)cc(N3CCOCC3)oc12 [AZD8186] (first compound max 1 µM, 7x7, partner max 3 µM)	0.151
COc1nnc2ccc(N3CCC(c4ccc(OCCN5CCN(C)C(=O)[C@H]5C)cc4)CC3)nn12 [AZD5153] + CCN(CCO)CCCOc1ccc2c(Nc3cc(CC(=O)Nc4cccc(F)c4)[nH]n3)ncnc2c1 [AZD2811] (first compound max 1 µM, 7x7, partner max 1 µM)	0.489

Data provenance: the supplement of paper PMC11061612
